ASSAY_EXPLANATION: Solubility of Compound 1 salts in organic solvents (solvent volumes)
Type: physicochemical
COND: 2-MeTHF
Where a name gives a salt, the structure may show the parent alone.
QUANTITY_KIND: Solubility, Volume (at 10-20° C.)

>  <COMPOUND>
CCn1nc(Cl)c2c1-c1cnc(N)c(c1)O[C@H](C)c1cc(F)ccc1-c1nn(C)cc1C2 [HCl salt]

>  <QUANTITY_KIND>
Solubility, Volume (at 10-20° C.)

>  <ENDPOINT_VALUE>
>400 V

$$$$
>  <COMPOUND>
CCn1nc(Cl)c2c1-c1cnc(N)c(c1)O[C@H](C)c1cc(F)ccc1-c1nn(C)cc1C2 [Citric Acid salt]

>  <QUANTITY_KIND>
Solubility, Volume (at 10-20° C.)

>  <ENDPOINT_VALUE>
8-10 V

$$$$
>  <COMPOUND>
CCn1nc(Cl)c2c1-c1cnc(N)c(c1)O[C@H](C)c1cc(F)ccc1-c1nn(C)cc1C2 [Fumaric Acid salt]

>  <QUANTITY_KIND>
Solubility, Volume (at 10-20° C.)

>  <ENDPOINT_VALUE>
8-10 V

$$$$
>  <COMPOUND>
CCn1nc(Cl)c2c1-c1cnc(N)c(c1)O[C@H](C)c1cc(F)ccc1-c1nn(C)cc1C2 [TsOH salt]

>  <QUANTITY_KIND>
Solubility, Volume (at 10-20° C.)

>  <ENDPOINT_VALUE>
>400 V

$$$$
>  <COMPOUND>
CCn1nc(Cl)c2c1-c1cnc(N)c(c1)O[C@H](C)c1cc(F)ccc1-c1nn(C)cc1C2 [L-Tartaric Acid Salt]

>  <QUANTITY_KIND>
Solubility, Volume (at 10-20° C.)

>  <ENDPOINT_VALUE>
4-6 V

$$$$

---

Item-by-item account of Solubility, Volume (at 10-20° C.)
ASSAY_EXPLANATION: Solubility of Compound 1 salts in organic solvents (solvent volumes)
Assay type: physicochemical
COND: MeCN
Where a name gives a salt, the structure may show the parent alone.

>  <COMPOUND>
CCn1nc(Cl)c2c1-c1cnc(N)c(c1)O[C@H](C)c1cc(F)ccc1-c1nn(C)cc1C2 [Fumaric Acid salt]

>  <Solubility, Volume (at 10-20° C.)>
150-200 V

$$$$
>  <COMPOUND>
CCn1nc(Cl)c2c1-c1cnc(N)c(c1)O[C@H](C)c1cc(F)ccc1-c1nn(C)cc1C2 [TsOH salt]

>  <Solubility, Volume (at 10-20° C.)>
8-10 V

$$$$
>  <COMPOUND>
CCn1nc(Cl)c2c1-c1cnc(N)c(c1)O[C@H](C)c1cc(F)ccc1-c1nn(C)cc1C2 [Salicylic acid salt]

>  <Solubility, Volume (at 10-20° C.)>
90-100 V

$$$$
>  <COMPOUND>
CCn1nc(Cl)c2c1-c1cnc(N)c(c1)O[C@H](C)c1cc(F)ccc1-c1nn(C)cc1C2 [Citric Acid salt]

>  <Solubility, Volume (at 10-20° C.)>
300-400 V

$$$$
>  <COMPOUND>
CCn1nc(Cl)c2c1-c1cnc(N)c(c1)O[C@H](C)c1cc(F)ccc1-c1nn(C)cc1C2 [L-Tartaric Acid Salt]

>  <Solubility, Volume (at 10-20° C.)>
30-32 V

$$$$
>  <COMPOUND>
CCn1nc(Cl)c2c1-c1cnc(N)c(c1)O[C@H](C)c1cc(F)ccc1-c1nn(C)cc1C2 [H3PO4 salt]

>  <Solubility, Volume (at 10-20° C.)>
>400 V

$$$$
>  <COMPOUND>
CCn1nc(Cl)c2c1-c1cnc(N)c(c1)O[C@H](C)c1cc(F)ccc1-c1nn(C)cc1C2 [MSA salt]

>  <Solubility, Volume (at 10-20° C.)>
6-8 V

$$$$
>  <COMPOUND>
CCn1nc(Cl)c2c1-c1cnc(N)c(c1)O[C@H](C)c1cc(F)ccc1-c1nn(C)cc1C2 [HCl salt]

>  <Solubility, Volume (at 10-20° C.)>
8-10 V

$$$$
>  <COMPOUND>
CCn1nc(Cl)c2c1-c1cnc(N)c(c1)O[C@H](C)c1cc(F)ccc1-c1nn(C)cc1C2 [Maleic Acid salt]

>  <Solubility, Volume (at 10-20° C.)>
16-20 V

$$$$

---

Item-by-item account of Purity (%) Before
ASSAY_EXPLANATION: Solid-form stability study of salts of Compound 2 (75% RH, 40° C., 7 days)
Type: physicochemical
COND: HPLC, before stress test
Structures can show the parent of a compound that is named as a salt.

>  <MOLECULE>
CCn1cc(Cc2cn(C)nc2-c2ccc(F)cc2[C@@H](C)Oc2cc(Br)cnc2N)c(Cl)n1 [Sulfate Salt]

>  <Purity (%) Before>
99.97

$$$$
>  <MOLECULE>
CCn1cc(Cc2cn(C)nc2-c2ccc(F)cc2[C@@H](C)Oc2cc(Br)cnc2N)c(Cl)n1 [Camsylate Salt]

>  <Purity (%) Before>
99.59

$$$$
>  <MOLECULE>
CCn1cc(Cc2cn(C)nc2-c2ccc(F)cc2[C@@H](C)Oc2cc(Br)cnc2N)c(Cl)n1 [Esylate Salt]

>  <Purity (%) Before>
99.75

$$$$
>  <MOLECULE>
CCn1cc(Cc2cn(C)nc2-c2ccc(F)cc2[C@@H](C)Oc2cc(Br)cnc2N)c(Cl)n1 [Mesylate Salt]

>  <Purity (%) Before>
99.92

$$$$

---

Item-by-item account of Solubility, Volume (at 10-20° C.)
ASSAY_EXPLANATION: Solubility of Compound 1 salts in organic solvents (solvent volumes)
Type: physicochemical
COND: IPAc
Where a name gives a salt, the structure may show the parent alone.

>  <COMPOUND>
CCn1nc(Cl)c2c1-c1cnc(N)c(c1)O[C@H](C)c1cc(F)ccc1-c1nn(C)cc1C2 [Salicylic acid salt]

>  <Solubility, Volume (at 10-20° C.)>
56-60 V

$$$$
>  <COMPOUND>
CCn1nc(Cl)c2c1-c1cnc(N)c(c1)O[C@H](C)c1cc(F)ccc1-c1nn(C)cc1C2 [HCl salt]

>  <Solubility, Volume (at 10-20° C.)>
>400 V

$$$$
>  <COMPOUND>
CCn1nc(Cl)c2c1-c1cnc(N)c(c1)O[C@H](C)c1cc(F)ccc1-c1nn(C)cc1C2 [TsOH salt]

>  <Solubility, Volume (at 10-20° C.)>
18-20 V

$$$$
>  <COMPOUND>
CCn1nc(Cl)c2c1-c1cnc(N)c(c1)O[C@H](C)c1cc(F)ccc1-c1nn(C)cc1C2 [Fumaric Acid salt]

>  <Solubility, Volume (at 10-20° C.)>
90-100 V

$$$$
>  <COMPOUND>
CCn1nc(Cl)c2c1-c1cnc(N)c(c1)O[C@H](C)c1cc(F)ccc1-c1nn(C)cc1C2 [L-Tartaric Acid Salt]

>  <Solubility, Volume (at 10-20° C.)>
52-56 V

$$$$
>  <COMPOUND>
CCn1nc(Cl)c2c1-c1cnc(N)c(c1)O[C@H](C)c1cc(F)ccc1-c1nn(C)cc1C2 [Citric Acid salt]

>  <Solubility, Volume (at 10-20° C.)>
>400 V

$$$$
>  <COMPOUND>
CCn1nc(Cl)c2c1-c1cnc(N)c(c1)O[C@H](C)c1cc(F)ccc1-c1nn(C)cc1C2 [Maleic Acid salt]

>  <Solubility, Volume (at 10-20° C.)>
20-30 V

$$$$
>  <COMPOUND>
CCn1nc(Cl)c2c1-c1cnc(N)c(c1)O[C@H](C)c1cc(F)ccc1-c1nn(C)cc1C2 [H3PO4 salt]

>  <Solubility, Volume (at 10-20° C.)>
>400 V

$$$$
>  <COMPOUND>
CCn1nc(Cl)c2c1-c1cnc(N)c(c1)O[C@H](C)c1cc(F)ccc1-c1nn(C)cc1C2 [MSA salt]

>  <Solubility, Volume (at 10-20° C.)>
260-300 V

$$$$

---

ASSAY_EXPLANATION: Solubility of Compound 1 salts in organic solvents (solvent volumes)
Type: physicochemical
COND: THF
Counter-ions that a name gives are not always drawn.
Item-by-item account of Solubility, Volume (at 10-20° C.)

>  <COMPOUND>
CCn1nc(Cl)c2c1-c1cnc(N)c(c1)O[C@H](C)c1cc(F)ccc1-c1nn(C)cc1C2 [Citric Acid salt]

>  <Solubility, Volume (at 10-20° C.)>
10-12 V

$$$$
>  <COMPOUND>
CCn1nc(Cl)c2c1-c1cnc(N)c(c1)O[C@H](C)c1cc(F)ccc1-c1nn(C)cc1C2 [Salicylic acid salt]

>  <Solubility, Volume (at 10-20° C.)>
4-6 V

$$$$
>  <COMPOUND>
CCn1nc(Cl)c2c1-c1cnc(N)c(c1)O[C@H](C)c1cc(F)ccc1-c1nn(C)cc1C2 [Fumaric Acid salt]

>  <Solubility, Volume (at 10-20° C.)>
3-4 V

$$$$
